Recorded values, source ChEMBL document CHEMBL4680311.

# System: EKVX
# METHOD NOTES: Antiproliferative activity against human EKVX cells assessed as cell growth at 10 uM incubated for 48 hrs by sulforhodamine B assay relative to control
# Format: functional
# CONDITION SUMMARY: read-out: Activity
growth at 10 µM values for the compounds below.
Numbers only; they are read as %.

Use these answered entries as a reference point.
Request: Tell me growth at 10 µM reported for c1ccc2cc(Cn3cc[n+](CCCCCCCCCCCCn4cc[n+](Cc5ccc6ccccc6c5)c4)c3)ccc2c1
Result: -62.6

Request: Quick one: give measured growth at 10 µM for c1ccc2cc(Cn3cc[n+](CCCCCCCn4cc[n+](Cc5ccc6ccccc6c5)c4)c3)ccc2c1
Result: 27.9

Request: Consider the compound [Br-].[Br-].c1ccc2cc(Cn3cc[n+](CCCCCCCCCCn4cc[n+](Cc5ccc6ccccc6c5)c4)c3)ccc2c1 and give its recorded growth at 10 µM.
Result: 13.7

Next:
Request: Input c1ccc2cc(Cn3cc[n+](CCn4cc[n+](Cc5ccc6ccccc6c5)c4)c3)ccc2c1 , output reported growth at 10 µM.
Result: 91.4

Request: Quick one: give measured growth at 10 µM for c1ccc2cc(Cn3cc[n+](Cn4cc[n+](Cc5ccc6ccccc6c5)c4)c3)ccc2c1
Result: 89.4
